- Tested on: Serratia marcescens S6
- test.name: MIC, NCCLS broth microdilution
- Assay type: cell-based
- condition.summary: with 324 and clavulanate
The threshold is 0.5 µg/mL. Values of MIC of antibiotic at fixed inhibitor concentration of 4 mg/L beneath it are tagged 1.0; values meeting or exceeding it are tagged 0.0.

CC1(C)[C@H](NC(=O)/C(=N\OCc2cc(=O)c(O)cn2O)c2csc(N)n2)C(=O)N1OS(=O)(=O)O | 1.0
NC(=O)OC[C@@H]1[C@H](NC(=O)/C(=N\OCc2cc(=O)c(O)cn2O)c2nsc(N)n2)C(=O)N1OS(=O)(=O)O | 0.0
NC(=O)OCC1C(NC(=O)C(=NOCc2cc(=O)c(O)cn2O)c2csc(N)n2)C(=O)N1OS(=O)(=O)O (stereo not shown) | 0.0

[ask] Dear colleague, could you confirm whether MIC of antibiotic at fixed inhibitor concentration of 4 mg/L of CC1C(NC(=O)C(=NOCc2cc(=O)c(O)cn2O)c2csc(N)n2)C(=O)N1S(=O)(=O)O (stereo not shown) falls below 0.5 µg/mL? Thanks.
[reply] 0.0

[ask] Param item: CC1(C)C(NC(=O)C(=NOCc2cc(=O)c(O)cn2O)c2nsc(N)n2)C(=O)N1OS(=O)(=O)O (stereo not shown)
[reply] 1.0
